# Test system: Stb4 (UniProt P50104)
# Sequence (P50104 whole entry): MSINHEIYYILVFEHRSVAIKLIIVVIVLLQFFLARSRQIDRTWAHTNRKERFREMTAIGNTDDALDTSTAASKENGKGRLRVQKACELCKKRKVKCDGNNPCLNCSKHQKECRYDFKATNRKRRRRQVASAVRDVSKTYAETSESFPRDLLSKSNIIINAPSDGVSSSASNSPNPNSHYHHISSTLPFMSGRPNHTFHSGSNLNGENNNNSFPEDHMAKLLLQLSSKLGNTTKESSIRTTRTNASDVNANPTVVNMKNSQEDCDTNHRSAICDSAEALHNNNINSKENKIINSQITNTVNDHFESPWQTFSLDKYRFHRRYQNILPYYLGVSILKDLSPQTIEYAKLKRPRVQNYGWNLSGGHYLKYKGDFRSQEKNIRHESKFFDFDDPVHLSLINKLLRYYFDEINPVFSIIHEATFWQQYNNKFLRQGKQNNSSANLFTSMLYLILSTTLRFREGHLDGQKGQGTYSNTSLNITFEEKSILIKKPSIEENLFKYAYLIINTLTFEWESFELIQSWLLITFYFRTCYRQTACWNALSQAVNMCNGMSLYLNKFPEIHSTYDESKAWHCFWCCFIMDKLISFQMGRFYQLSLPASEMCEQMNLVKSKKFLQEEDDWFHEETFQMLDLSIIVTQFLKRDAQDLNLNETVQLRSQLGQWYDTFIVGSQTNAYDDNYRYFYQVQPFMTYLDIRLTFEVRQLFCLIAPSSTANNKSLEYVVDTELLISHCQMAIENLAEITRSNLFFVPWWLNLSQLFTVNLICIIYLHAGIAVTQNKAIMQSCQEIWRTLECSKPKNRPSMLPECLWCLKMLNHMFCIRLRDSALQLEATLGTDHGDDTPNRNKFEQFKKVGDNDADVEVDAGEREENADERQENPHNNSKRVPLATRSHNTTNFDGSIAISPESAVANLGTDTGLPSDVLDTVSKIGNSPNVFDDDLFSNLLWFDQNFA
# Assay comment: PBM E-score (8-mer binding enrichment) (E-score (-0.5 to 0.5)); higher = stronger / more preferred TF binding
# Protocol conditions: protein concentration: 200 nM; construct: GST-DNA-binding domain
Over roughly 33,000 sequences, “E-score (-0.5 to 0.5)” has its median near -0.056; the highest 2% begin near 0.38. The entries come from a sample that favours the highest values as a whole.
Assign yes whenever PBM E-score does not fall below -0.02; assign no whenever it does.

Reference set (4 entries):
>  <Construct sequence>
CTCCCAAG

>  <Group>
no

$$$$
>  <Construct sequence>
CCGGAAAA

>  <Group>
yes

$$$$
>  <Construct sequence>
CGAGTAAC

>  <Group>
yes

$$$$
>  <Construct sequence>
CGAGTCAA

>  <Group>
no

$$$$

Next:
Quick check, PBM E-score >= -0.02? CATAGTGG
no

====

# Test system: Stb4 (UniProt P50104)
# Assay comment: PBM E-score (8-mer binding enrichment) (E-score (-0.5 to 0.5)); higher = stronger / more preferred TF binding
# Protocol conditions: protein concentration: 200 nM; construct: GST-DNA-binding domain
In all, about 33,000 sequences were measured (“E-score (-0.5 to 0.5)”: median about -0.056, highest 2% from about 0.38 on). The full list was thinned out, with the highest values kept by preference.
Category | rule: reported PBM E-score within range, see Low: < -0.2; Medium: ≥ -0.2 and < 0.08; High: ≥ 0.08

Reference set (4 entries):
>  <Construct sequence>
GGCGAGAC

>  <Group>
Low

$$$$
>  <Construct sequence>
TTCGAGAA

>  <Group>
Low

$$$$
>  <Construct sequence>
CCTGGCAG

>  <Group>
Low

$$$$
>  <Construct sequence>
TACGAGAA

>  <Group>
Medium

$$$$

Category of AGCTCGCG :
Medium

Category of AGATTCCC :
High

Category of CACGAGAA :
Medium

Category of CACGAGAG :
Medium

Category of AGCTCGAC :
Medium

====

# Test system: Stb4 (UniProt P50104)
# Assay comment: PBM E-score (8-mer binding enrichment) (E-score (-0.5 to 0.5)); higher = stronger / more preferred TF binding
# Protocol conditions: protein concentration: 200 nM; construct: GST-DNA-binding domain
Over roughly 33,000 sequences, “E-score (-0.5 to 0.5)” has its median near -0.056; the highest 2% begin near 0.38. This excerpt belongs to a sample that is enriched for the highest values.
Assign Y whenever PBM E-score does not fall below 0.1; assign N whenever it does.

Reference set (9 entries):
>  <Construct sequence>
CCGATACG

>  <Group>
Y

$$$$
>  <Construct sequence>
AATTTCCC

>  <Group>
Y

$$$$
>  <Construct sequence>
AATTTCCT

>  <Group>
N

$$$$
>  <Construct sequence>
ATCCTCGG

>  <Group>
Y

$$$$
>  <Construct sequence>
CGGATACC

>  <Group>
Y

$$$$
>  <Construct sequence>
AATCATAA

>  <Group>
N

$$$$
>  <Construct sequence>
ACCCGACT

>  <Group>
Y

$$$$
>  <Construct sequence>
ACCCTCGC

>  <Group>
N

$$$$
>  <Construct sequence>
AATTTCCG

>  <Group>
Y

$$$$

Next:
Quick check, PBM E-score >= 0.1? CACCTCGC
N
